Exercise: for every item that follows, state its recorded growth.
# System: SN12C renal
# PROCEDURE_TEXT: NCI-60 one-dose screen, 48 h (100 = growth as untreated, 0 = no growth, -100 = all killed)
# SETTINGS: 10 µM unless noted
About 83,000 compounds went through this panel and 20% of them were active in at least one assay; those are over-represented in the sample as a whole.
Number in %, nothing else.

Recorded growth of `COc1ccc(C(=O)c2cc3c(N)c(C(=O)Nc4cccc5ccccc45)sc3nc2C)cc1` , please.
22.5

GET /values?readout=growth&item= `Clc1nc(Nc2ccccc2)nc(Nc2ccccc2)n1`
95.9

Which value of growth has been reported for `Cc1ccc(S(=O)(=O)Nc2ccc(Cl)cc2)cc1` in the records?
94.3

So what does the record say about growth for COc1ccc2c(c1)OC1=C(C(=O)OC1)C2c1cc(OC)c(OC)c(OC)c1 (stereo not given) ?
47.7

# lookup: growth of `COc1cc(COC(=O)CCCCC[P+](c2ccccc2)(c2ccccc2)c2ccccc2)c(OC)c2c1OCO2`
51

GET /values?readout=growth&item= `COc1cccc(CCC(=O)c2cc3c(N)c(C(=O)Nc4cccc(Cl)c4C)sc3nc2C)c1`
36

Form field: reported growth of CC[N+](CC)(CCCC(C)[N+]1(Cc2ccccc2)C(C)=CC=C1C)Cc1ccccc1 (stereo not given)
85.1

State the recorded growth for this entry: `COc1ccccc1N1CCN(C(=O)c2ccc3nc(NC(=O)c4ccc(NCCc5ccccc5)c([N+](=O)[O-])c4)sc3c2)CC1`
77.2

I would be grateful if you could share the reported growth for CN1C(=O)N(C)C2NC(N/N=C/c3ccccc3)=NC21 (stereo not given) .
98.5

What measured growth goes with `NC(=O)c1cccc(-c2ccccc2N2CCCCC2)c1` ?
93.6

Returns the measured growth for the input molecule. Input: `COc1ccc(-c2c(-c3ccccc3)noc2N)cc1OC`
105

GET /values?readout=growth&item= COc1cc(C2CC(c3cccc(Nc4ccncc4)c3)=NN2c2cc(Cl)cc(Cl)c2)cc(OC)c1OC (stereo not given)
9.72

Using the record for `Cc1c2c(cc[n+]1Cc1ccccc1)c1ccc(OCC3CCCCC3)cc1n2CC1CCCCC1` , report its growth.
-91.9

Please give the measured growth for this molecule: `C=C1C(=O)O[C@H]2[C@H]1CC/C(COC(=O)CCCc1c[nH]c3ccccc13)=C\CC[C@@]1(C)O[C@@H]21`
54.8

Can you look up the measured growth of `COc1cccc(-c2nc3occn3c2-c2ccnc(NCCCNS(=O)(=O)c3cccc(F)c3)n2)c1` for me?
87.7

Any idea what growth was measured for `O=C(O)CNC(=O)CN1C(=O)c2ccccc2C1=O` ?
99.1

growth lookup needed for `Cc1nc2sc(C(=O)Nc3cccc(Br)c3)c(N)c2cc1C(=O)c1ccc(C(F)(F)F)cc1` , thanks.
71

Reported growth, molecule `CCOc1ccc(/C=N/Nc2cc(C)nc3ccc(Cl)cc23)cc1` : ____
-26

Report growth for `COc1ccc(/C=C(/c2ccccc2)[N+](=O)[O-])cc1` please.
-38.4

# input molecule: `O=C(CN1CCOCC1)Nc1ccc2ncnc(Nc3ccc(Oc4cccc(F)c4)c(Cl)c3)c2c1` ; wanted: its growth
48.9

Quick check: growth of `COc1ccc(-c2nc(N=Nc3c(O)[nH]c4ccccc34)nc(N3CCOCC3)c2C#N)cc1` ?
73.3

Recorded growth for `COc1cc(C(=O)/C=C/c2c(C)n([O-])c3ccc(Cl)cc3[n+]2=O)cc(OC)c1OC` , please?
56.3

Query (molecule): `O=C(Cc1ccc(/C=C/C(=O)c2ncc[nH]2)cc1)Nc1ccc(C(F)(F)F)cc1` ; field requested: growth
29.5

# get_value(readout='growth', item= `COc1cccc(CNCCN2C(=O)c3ccc4c5c(ccc(c35)C2=O)C(=O)N(CCNCc2cccc(OC)c2)C4=O)c1` )
85.7

Requested read-out: growth. Entry: `CCc1nc(C)cn1C(=O)OCc1nc2nc(Cl)nc(N3CCOCC3)c2[nH]1`
-21.3

Name the recorded growth for `COc1ccc(OC)c(/C=C/[C@H]2O[C@@H](C)[C@H](O)[C@@H]2O)c1` .
106

Given `Cc1n[nH]c(C)c1-c1c(C)n[nH]c1C` , state its recorded growth.
9.52

Can you look up the measured growth of `COc1ccc(C(=O)c2cc3c(N)c(C(=O)Nc4cccc(Cl)c4)sc3nc2C)cc1` for me?
42.7

Look at this molecule and give its reported growth. `NC(=O)CN1CCN(c2ccccc2Cl)CC1`
109

Give the measured growth of `O=C(Nc1nc2ccc(C(=O)N3CCN(c4ccc(Cl)c(Cl)c4)CC3)cc2s1)c1ccc(NCCc2ccccc2)c([N+](=O)[O-])c1` .
93.3

Any idea what growth was measured for `COc1ccc(CNCCN2C(=O)c3ccc4c5c(ccc(c35)C2=O)C(=O)N(CCNCc2ccc(OC)cc2)C4=O)cc1` ?
-87.9

Dear colleague, I am looking for the recorded growth of the following molecule: `CCOC(=O)C1=C(C)NC(C)=C(C(=O)OCC)C1c1cc(Br)c(O)c(OC)c1`
48.5

Entry CCN1C(=O)N(CC)C2C1NN=c1s/c(=C3\C(=O)Nc4ccccc43)c(=O)n12 (stereo not given) has what growth?
34

Name the recorded growth for `[O-][n+]1ccccc1CCN(O)CCc1cccc[n+]1[O-]` .
105

For the molecule shown here, `CCCCCCOc1ccc(C(=N)N(CCCC)CCCC)c2ccccc12` , give the reported growth.
-86.5

Value lookup for growth; key = `COc1ccc(C(=O)c2cc3c(N)c(C(=O)Nc4cccc(Br)c4C)sc3nc2C)cc1`
19.2

Look up growth: `CN1C2CCC1CN(c1cnc(C(=O)Nc3cc(F)cc4cccnc34)cn1)C2`
51.4

Fill blank: measured growth of the molecule `COc1cc2c(cc1[N+](=O)[O-])-c1ccc([N+](=O)[O-])cc1/C2=N\O` is ____.
91.1

Fill blank: measured growth of the molecule `CC(C)(C)OC(=O)N1CCN(c2ccc(N)cc2)C(=O)C1` is ____.
96.2

Tell me the measured growth of `CN1CCN(c2ccc(NC3=C(Cl)C(=O)c4ncccc4C3=O)cc2C#N)CC1` , please.
25.5
